Test: Dd2 parasite growth inhibition in erythrocytes – SYBR Green, dry powder samples, set 9, dose response (AID 1159568)
Details: P. falciparum Dd2 in erythrocytes, 72 h; series mostly up to 19.5 µM
Measured potencies and affinities stand elsewhere. Inconclusive results are not listed. Activity calls are given as the source filed them.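 How the source made its calls: active means signal loss with an EC50 at or below twice the highest valid dose for that sample; inconclusive means flat curve with 30 to 70% inhibition, or poor fit; inactive means the rest.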
METRIC NAME: outcome

>>> observed_value("COCC(=O)N1C[C@H](C)[C@@H](OC)CN(C)C(=O)c2ccc(NC(=O)Nc3cccc(F)c3)cc2OC[C@@H]1C")
"inactive"
>>> observed_value("COc1cccc(NC(=O)N[C@@H]2CC[C@H](CC(=O)N3CCN(C)CC3)O[C@@H]2CO)c1")
"inactive"
>>> observed_value("COc1ccc(NC(=O)N(C)C[C@H]2Oc3ccc(NC(=O)CCN4CCOCC4)cc3C(=O)N([C@H](C)CO)C[C@@H]2C)cc1")
"inactive"
